pKi values, listed per item
# study-system: ATP-binding cassette sub-family C member 2 (Rattus norvegicus, UniProt Q63120)
# Sequence (Q63120 whole entry): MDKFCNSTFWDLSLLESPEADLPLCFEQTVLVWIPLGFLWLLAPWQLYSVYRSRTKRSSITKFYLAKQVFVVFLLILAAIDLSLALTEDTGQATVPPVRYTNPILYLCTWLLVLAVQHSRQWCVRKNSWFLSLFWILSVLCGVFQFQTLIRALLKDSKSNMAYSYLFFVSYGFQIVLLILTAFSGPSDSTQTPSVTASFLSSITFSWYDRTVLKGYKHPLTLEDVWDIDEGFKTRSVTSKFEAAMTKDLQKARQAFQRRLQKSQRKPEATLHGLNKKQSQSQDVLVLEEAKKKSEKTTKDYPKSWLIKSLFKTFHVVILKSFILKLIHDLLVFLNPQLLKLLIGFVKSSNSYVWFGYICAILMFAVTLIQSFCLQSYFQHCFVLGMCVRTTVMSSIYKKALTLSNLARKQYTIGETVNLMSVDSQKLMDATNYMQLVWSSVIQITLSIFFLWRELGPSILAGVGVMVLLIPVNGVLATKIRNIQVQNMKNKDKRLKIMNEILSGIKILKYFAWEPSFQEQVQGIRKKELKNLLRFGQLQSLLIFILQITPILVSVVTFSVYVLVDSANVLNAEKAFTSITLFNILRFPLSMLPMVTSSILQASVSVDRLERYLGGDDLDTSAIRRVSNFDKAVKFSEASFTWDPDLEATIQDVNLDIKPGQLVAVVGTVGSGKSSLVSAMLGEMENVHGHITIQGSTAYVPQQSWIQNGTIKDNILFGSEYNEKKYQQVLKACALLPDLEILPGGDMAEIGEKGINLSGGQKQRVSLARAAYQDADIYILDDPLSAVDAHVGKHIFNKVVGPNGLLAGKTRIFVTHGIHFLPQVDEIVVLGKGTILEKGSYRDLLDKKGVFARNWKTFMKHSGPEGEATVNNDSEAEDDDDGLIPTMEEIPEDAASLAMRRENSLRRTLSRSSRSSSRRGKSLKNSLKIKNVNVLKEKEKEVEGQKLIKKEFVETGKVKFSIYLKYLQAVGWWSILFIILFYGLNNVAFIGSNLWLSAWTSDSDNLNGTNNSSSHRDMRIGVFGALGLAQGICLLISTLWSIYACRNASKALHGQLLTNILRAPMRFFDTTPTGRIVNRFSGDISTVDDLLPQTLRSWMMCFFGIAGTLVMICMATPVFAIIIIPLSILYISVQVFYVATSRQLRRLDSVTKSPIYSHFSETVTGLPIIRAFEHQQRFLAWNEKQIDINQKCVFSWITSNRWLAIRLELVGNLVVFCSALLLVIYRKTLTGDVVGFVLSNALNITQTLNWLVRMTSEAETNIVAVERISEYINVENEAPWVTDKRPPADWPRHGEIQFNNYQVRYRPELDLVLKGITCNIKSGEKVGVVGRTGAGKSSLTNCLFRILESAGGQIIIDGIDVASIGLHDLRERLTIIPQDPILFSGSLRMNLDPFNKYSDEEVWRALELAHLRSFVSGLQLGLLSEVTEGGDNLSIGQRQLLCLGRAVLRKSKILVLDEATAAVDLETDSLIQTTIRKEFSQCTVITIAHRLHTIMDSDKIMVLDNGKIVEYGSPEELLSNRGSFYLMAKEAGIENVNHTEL
# assay-info: TP_TRANSPORTER: inhibition of BQ-123 uptake in bile canalicular membrane vesicles from SD rat
# Type: functional, cell membranes, Sprague-Dawley, Bile canalicular membrane vesicle
pKi: −log10 of the molar value. Square brackets hold non-standard residues; d marks the D form. Peptide text beside a SMILES is read from it. * marks the point of attachment. dGly(2-thienyl) = N[C@@H](C(=O)O)c1cccs1; Moc = COC(=O)*
parameter-measured: pKi

compound	value-observed
CC(C)C[C@H](NC(=O)N1CCCCCC1)C(=O)N[C@H](Cc1c[nH]c2ccccc12)C(=O)N[C@H](Cc1c[nH]c2ccccc12)C(=O)O	5.08
CC(C)C[C@@H]1NC(=O)[C@@H](C(C)C)NC(=O)[C@@H]2C[C@@H](OC(=O)[C@H](CCCCN)N(C)C)CN2C(=O)[C@@H](CC(=O)O)NC(=O)[C@@H](Cc2c[nH]c3ccccc23)NC1=O	4.07
CC(C)C[C@@H]1NC(=O)[C@@H](C(C)C)NC(=O)[C@@H]2C[C@H](OC(=O)[C@@H](N)CCCNC(=N)N)CN2C(=O)[C@@H](CC(=O)O)NC(=O)[C@@H](Cc2c[nH]c3ccccc23)NC1=O	6.00
CC(C)C[C@@H]1NC(=O)[C@@H](c2cccs2)NC(=O)[C@@H]2CCCN2C(=O)[C@@H](CC(=O)O)NC(=O)[C@@H](Cc2c[nH]c3ccccc23)NC1=O (cyclo(L[dW][dD]P[dGly(2-thienyl)]))	4.18
COC(=O)n1cc(C[C@H]2NC(=O)[C@H](CC(C)C)NC(=O)[C@@H](C(C)C)NC(=O)[C@@H]3CCCN3C(=O)[C@@H](CC(=O)O)NC2=O)c2ccccc21 (cyclo(L[dW](Moc)[dD]P[dV]))	4.27
CC(C)C[C@H](NC(=O)N1CCCCCC1)C(=O)N[C@H](Cc1c[nH]c2ccccc12)C(=O)NC(C)CC(=O)O (stereo partly specified)	4.40
